Entry source: patent US20240270826A1

# TESTED SYSTEM: T1, SARS-CoV-2 S on CHO-S cells (SARS-CoV-2, UniProt P0DTC2 14-1273)
# T1 construct: whole, on cells
# PROTOCOL DESCRIPTION: flow cytometry, CHO-S cells
ASSAY READOUT: EC50 (nM)
Report only the number, with the unit nM understood.

Req: Given NRCoV2-1a VHH-Fc (Fc fusion, bivalent VHH-Fc) EVKLVQSGGGSVQPGGSLRLSCAASGSTLDYYAIGWFRQAPGKEREWVSCVSSSDGSTLYADSVKGRFTISRDNAKNTVYLQMNSLKPEDTAVYVCAADYSMRPLWVSRWHRDYEYWGQGTQVTVSS , state its recorded EC50.
Resp: 1.1

Req: # EC50 lookup, item NRCoV2-SR13 VHH-Fc (Fc fusion, bivalent VHH-Fc) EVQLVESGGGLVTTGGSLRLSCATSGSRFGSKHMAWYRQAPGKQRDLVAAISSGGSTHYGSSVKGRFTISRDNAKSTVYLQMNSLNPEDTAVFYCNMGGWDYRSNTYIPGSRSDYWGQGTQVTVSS
Resp: 7

Req: Please give the measured EC50 for this binder: NRCoV2-14 VHH-Fc (Fc fusion, bivalent VHH-Fc) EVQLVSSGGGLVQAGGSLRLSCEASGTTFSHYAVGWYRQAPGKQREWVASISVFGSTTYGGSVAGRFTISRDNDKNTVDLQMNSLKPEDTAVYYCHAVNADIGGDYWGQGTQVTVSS
Resp: 0.9

Req: Value lookup for EC50; key = NRCoV2-S2G4 VHH-Fc (Fc fusion, bivalent VHH-Fc) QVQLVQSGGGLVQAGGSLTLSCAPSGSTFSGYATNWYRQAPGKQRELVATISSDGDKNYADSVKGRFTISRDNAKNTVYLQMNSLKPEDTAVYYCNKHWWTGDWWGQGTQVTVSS
Resp: 0.3
